# MEASURED TARGET: muscarinic acetylcholine receptors
# ASSAY NOTES: inhibition of specific binding of ^3 H-Oxotremorine-M (^3 H-Oxo)
# ASSAY SETUP: ^3 H-Oxotremorine 1.0 nM, rat cortex, 30 min. at 25° C.
# note: boundary value 0.01 µM maps to F; IC50 below it maps to T

COMPOUND	CLASS
C/C=C/COc1nsnc1O[C@@H]1CN2CCC[C@H]1C2 (relative stereo)	T
C1=CC(Oc2nsnc2OC2CN3CCCC2C3)CCC1 (mixture of isomers)	T
CCCCSc1nsnc1OC1CCN(C)CC1	F
CSCCOc1nsnc1O[C@@H]1CN2CCC[C@H]1C2 (relative stereo)	T
COc1nsnc1OC1CN2CCC1CC2 (racemic)	F
C=CCCCOc1nsnc1OC1CN2CCC1CC2 (racemic)	F
FCCCCOc1nsnc1OC1CN2CCC1CC2 (racemic)	F
CC(C)CCCOc1nsnc1OC1CN2CCC1CC2 (racemic)	F
CCCCCSc1nsnc1OC1CN2CCC1CC2 (racemic)	T

====

# MEASURED TARGET: muscarinic acetylcholine receptors
# ASSAY NOTES: inhibition of specific binding of ^3 H-Oxotremorine-M (^3 H-Oxo)
# ASSAY SETUP: ^3 H-Oxotremorine 1.0 nM, rat cortex, 30 min. at 25° C.
OBSERVABLE: IC50 (nM)

COMPOUND	OBSERVABLE	RESULT UNIT	COMPARISON OPERATOR	RESULT
CCCCOc1nsnc1O[C@@H]1CCC[C@H]1N(C)C (racemic)	IC50	nM	>	1000
Fc1ccc(COc2nsnc2O[C@@H]2CN3CCC[C@H]2C3)cc1 (relative stereo)	IC50	nM	=	2.1
CC(C)(C)CCSc1nsnc1OC1CN2CCC1CC2 (racemic)	IC50	nM	=	101
Brc1ccc(OCCOc2nsnc2OC2CN3CCC2CC3)cc1 (racemic)	IC50	nM	=	6.9
CC(C)CCCSc1nsnc1OC1CN2CCC1CC2 (racemic)	IC50	nM	=	13

====

IC50 listing for selected compounds.
# MEASURED TARGET: muscarinic acetylcholine receptors
# ASSAY NOTES: inhibition of specific binding of ^3 H-Oxotremorine-M (^3 H-Oxo)
# ASSAY SETUP: ^3 H-Oxotremorine 1.0 nM, rat cortex, 30 min. at 25° C.
OBSERVABLE: IC50 (nM)

COMPOUND	OBSERVABLE	RESULT UNIT	RESULT
COCCOc1nsnc1OC1CN2CCC1CC2 (racemic)	IC50	nM	38
Clc1ccc(OCCOc2nsnc2OC2CN3CCC2CC3)cc1 (racemic)	IC50	nM	7.2
FC(F)(F)CCCOc1nsnc1O[C@@H]1CN2CCC[C@H]1C2 (relative stereo)	IC50	nM	2.8
C(CC1CC1)Oc1nsnc1OC1CN2CCC1CC2 (racemic)	IC50	nM	9.3
N#Cc1ccc(CSc2nsnc2OC2CN3CCC2CC3)cc1 (racemic)	IC50	nM	25
CCCCOc1nsnc1OCC[N+](C)(C)C	IC50	nM	23
C#CC(C)Oc1nsnc1OC1CN2CCCC1C2 (mixture of isomers)	IC50	nM	3.1
FC(F)(F)CCCOc1nsnc1OC1CN2CCC1CC2 (racemic)	IC50	nM	107
CCCCS(=O)(=O)c1nsnc1OC1CN2CCC1CC2 (racemic)	IC50	nM	378

====

# MEASURED TARGET: muscarinic receptors (M1 -site, pirenzepine sensitive site) (Rattus norvegicus)
# Construct: from tissue; host or cells: cerebral cortex membranes of male Wistar rats
# Sequence (P08482 whole entry): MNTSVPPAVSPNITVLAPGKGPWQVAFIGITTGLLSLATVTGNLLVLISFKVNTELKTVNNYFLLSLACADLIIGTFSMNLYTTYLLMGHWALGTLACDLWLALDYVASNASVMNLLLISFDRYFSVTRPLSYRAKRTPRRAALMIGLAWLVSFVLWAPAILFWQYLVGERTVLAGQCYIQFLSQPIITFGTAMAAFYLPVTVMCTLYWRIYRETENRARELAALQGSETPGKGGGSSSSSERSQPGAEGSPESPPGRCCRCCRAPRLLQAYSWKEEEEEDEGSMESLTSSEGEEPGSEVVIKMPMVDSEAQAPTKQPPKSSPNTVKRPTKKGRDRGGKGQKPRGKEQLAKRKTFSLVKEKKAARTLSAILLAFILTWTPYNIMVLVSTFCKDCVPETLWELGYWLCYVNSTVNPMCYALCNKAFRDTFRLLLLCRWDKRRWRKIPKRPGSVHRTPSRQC
# ASSAY NOTES: inhibition of ^3 HPRZ (pirenzepine, [N-methyl-^3 H]) binding to rat cerebral cortex membranes
# Parameters: species or system rat (male Wistar
# Protocol: Furthermore the pharmacological properties of the compounds of the invention can also be illustrated by determining their capability to inhibit ^3 HPRZ (pirenzepine, [N-methyl-^3 H]) binding to rat cerebral cortex membranes. […] The final pellet is homogenized in 20 mM Hepes pH: 7.4 (100 mL per g of original tissue) and used for binding assay. […] Non-specific binding is determined in triplicate using atropine (1 ,μg/mL, final conc.) as the test substance. […]
pIC50: −log10 of the molar value.
Label class 1 when pIC50 is at or above 8; anything below gets class 0.

COMPOUND	MEASURED TARGET	CLASS
C(#Cc1ccccc1)COc1nsnc1OC1CN2CCC1CC2 (racemic)	muscarinic receptors (M1 -site, pirenzepine sensitive site) (Rattus norvegicus)	class 0
C(=Cc1ccccc1)CSc1nsnc1OC1CN2CCC1CC2 (racemic)	muscarinic receptors (M1 -site, pirenzepine sensitive site) (Rattus norvegicus)	class 0
CC(C)CCCOc1nsnc1OC1CN2CCC1CC2 (racemic)	muscarinic receptors (M1 -site, pirenzepine sensitive site) (Rattus norvegicus)	class 0
C#CCCOc1nsnc1OC1CN2CCC1CC2 (racemic)	muscarinic receptors (M1 -site, pirenzepine sensitive site) (Rattus norvegicus)	class 0
CCCCCSc1nsnc1O[C@@H]1CN2CCC1CC2	muscarinic receptors (M1 -site, pirenzepine sensitive site) (Rattus norvegicus)	class 1
